test-target: PKA (Homo sapiens)
Construct: His; purchased PanVera, USA #R3791; host or cells: E. coli
protocol-description: Biochemical PKA assay (flashplate)
condition-info: 100 nM ATP; read-out: PKA inhibition: −log IC50 (converted)
Quick reference for IC50 among some molecules
value-kind: IC50

1. O=C(Nc1cccc(Nc2nc(-c3cccc4c3oc3ccccc34)cc3ccnn23)c1)c1ccc2c(c1)CCNC2 [Example 63] ... 6.31 to 100 µM
2. NCc1ccc(C(=O)Nc2cccc(Nc3nc(-c4cccc5c4oc4ccccc45)cc4ccnn34)c2)c(F)c1 [Example 27] ... > 100 µM
3. NCc1ccc(C(=O)Nc2ccc(Nc3nc(-c4ccc(-c5cccc(F)c5)cc4)cc4ccnn34)cc2)cc1 [Example 70] ... 6.31 to 100 µM
4. NCc1cc(C(=O)Nc2ccc(Nc3nc(-c4cccc5c4oc4ccccc45)cc4ccnn34)cc2)ccn1 [Example 30] ... > 100 µM
5. O=C(Nc1cccc(Nc2nc(-c3cccc4c3oc3ccccc34)cc3ccnn23)c1)c1ccc2c(c1)CNCC2 [Example 34] ... 6.31 to 100 µM
6. CNCc1ccc(C(=O)Nc2ccc(Nc3nc(-c4cccc5c4oc4ccccc45)cc4ccnn34)cc2)cc1 [Example 33] ... > 100 µM
7. NCc1ccc(C(=O)Nc2ccc(Nc3nc(-c4ccc(-c5ccc(F)cc5)cc4)cc4ccnn34)cc2)cc1 [Example 67] ... 6.31 to 100 µM
8. NCCc1ccc(C(=O)Nc2ccc(Nc3nc(-c4cccc5c4oc4ccccc45)cc4ccnn34)cc2)cc1 [Example 23] ... > 100 µM
9. CNCc1ccc(C(=O)Nc2cccc(Nc3nc(-c4cccc5c4oc4ccccc45)cc4ccnn34)c2)cc1 [Example 32] ... 6.31 to 100 µM
10. COc1ccccc1-c1ccc(-c2cc3ccnn3c(Nc3ccc(NC(=O)c4ccc(CN)cc4)cc3)n2)cc1 [Example 56] ... 6.31 to 100 µM
11. COCCOc1ccc2cc(-c3cc4ccnn4c(Nc4ccc(NC(=O)c5ccc(CN)cc5)cc4)n3)ccc2c1 [Example 47] ... > 100 µM
12. NCc1ccc(C(=O)Nc2ccc(Nc3nc(-c4cccc5c4oc4ccccc45)cc4ccnn34)cc2)c(F)c1 [Example 28] ... > 100 µM
13. NCc1ccc(C(=O)Nc2ccc(Nc3nc(-c4ccc(-c5ccccc5)nc4)cc4ccnn34)cc2)cc1 [Example 54] ... 6.31 to 100 µM
14. NCc1ccc(C(=O)Nc2ccc(Nc3nc(-c4ccc(-c5ccccc5)cc4)cc4ccnn34)cc2)cc1 [Example 1] ... > 100 µM
15. O=C(Nc1ccc(Nc2nc(-c3cccc4c3oc3ccccc34)cc3ccnn23)cc1)c1ccc2c(c1)CNCC2 [Example 35] ... > 100 µM
16. NCc1ccc(C(=O)Nc2ccc(Nc3nc(-c4ccc(I)cc4)cc4ccnn34)cc2)cc1 [Example 68] ... 6.31 to 100 µM
17. COc1ccc(-c2ccc(-c3cc4ccnn4c(Nc4ccc(NC(=O)c5ccc(CN)cc5)cc4)n3)cc2)cc1 [Example 55] ... > 100 µM
18. NCc1ccc(C(=O)Nc2ccc(Nc3nc(-c4cccc5c4oc4ccccc45)cc4ccnn34)cc2)o1 [Example 38] ... > 100 µM
19. CC(=O)Nc1cccc(-c2ccc(-c3cc4ccnn4c(Nc4ccc(NC(=O)c5ccc(CN)cc5)cc4)n3)cc2)c1 [Example 60] ... 6.31 to 100 µM
20. NCc1cncc(C(=O)Nc2ccc(Nc3nc(-c4cccc5c4oc4ccccc45)cc4ccnn34)cc2)c1 [Example 52] ... > 100 µM
21. CCOc1ccc2cc(-c3cc4ccnn4c(Nc4ccc(NC(=O)c5ccc(CN)cc5)cc4)n3)ccc2c1 [Example 46] ... > 100 µM
22. N=C(N)Nc1ccc(C(=O)Nc2ccc(Nc3nc(-c4cccc5c4oc4ccccc45)cc4ccnn34)cc2)cc1 [Example 48] ... > 100 µM
23. O=C(Nc1ccc(Nc2nc(-c3cccc4c3oc3ccccc34)cc3ccnn23)cc1)c1ccc(CNCCO)cc1 [Example 57] ... > 100 µM
24. CC(C)(N)c1ccc(C(=O)Nc2ccc(Nc3nc(-c4cccc5c4oc4ccccc45)cc4ccnn34)cc2)cc1 [Example 39] ... 6.31 to 100 µM
25. CC(C)(N)c1ccc(C(=O)Nc2cccc(Nc3nc(-c4cccc5c4oc4ccccc45)cc4ccnn34)c2)cc1 [Example 40] ... 6.31 to 100 µM
26. NCc1ccnc(C(=O)Nc2ccc(Nc3nc(-c4cccc5c4oc4ccccc45)cc4ccnn34)cc2)c1 [Example 53] ... > 100 µM
27. NCc1cccc(C(=O)Nc2ccc(Nc3nc(-c4cccc5c4oc4ccccc45)cc4ccnn34)cc2)n1 [Example 51] ... > 100 µM
28. NCc1ccc(C(=O)Nc2ccc(Nc3nc(-c4cccc5c4oc4ccccc45)cc4ccnn34)cc2)nc1 [Example 65] ... 6.31 to 100 µM
29. NCc1ccc(C(=O)Nc2ccc(Nc3nc(-c4ccc5cc(OCc6ccccc6)ccc5c4)cc4ccnn34)cc2)cc1 [Example 42] ... > 100 µM

====

test-target: GST-ΔPH-Akt1 (Homo sapiens, UniProt P31749)
Construct: named GST-deltaPH-Akt1; 107-480aa; cloned in the pAcGl vector; GST (N)
Sequence (P31749 107-480, stated change not applied): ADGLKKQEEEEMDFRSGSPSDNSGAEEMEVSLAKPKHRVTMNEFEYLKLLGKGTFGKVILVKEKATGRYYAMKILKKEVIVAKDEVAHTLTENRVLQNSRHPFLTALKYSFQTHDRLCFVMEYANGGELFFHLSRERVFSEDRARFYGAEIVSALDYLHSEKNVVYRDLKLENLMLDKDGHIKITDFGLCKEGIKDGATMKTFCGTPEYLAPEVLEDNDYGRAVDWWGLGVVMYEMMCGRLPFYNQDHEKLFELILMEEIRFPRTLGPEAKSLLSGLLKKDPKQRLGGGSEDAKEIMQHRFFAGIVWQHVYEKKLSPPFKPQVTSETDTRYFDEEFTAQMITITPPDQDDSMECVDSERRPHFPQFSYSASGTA
protocol-description: Biochemical ΔPH Akt1 assay (flashplate, 33P incorporation into histone 2B)
condition-info: 100 nM ATP, histone 2B substrate; read-out: ΔPHAkt1 inhibition: IC50
Method: For the biochemical assay ΔPHAkt1 is used devoid of its PH domain as a GST fusion protein (named GST-deltaPH-Akt1; 107-480aa; cloned in the pAcGl vector (BD Biosciences Pharmingen)), co-expressed with PDK1 in SF9 insect cells. […] The Akt1 assay is a biochemical assay using Akt1 devoid of its PH domain and co-expressed with PDK1 in insect cells. […] This phosphorylation is measured by counting the plate for 60 sec. using a plate reader (Wallac Microbeta; Perkin Elmer, USA).
pIC50: −log10 of the molar value.
Documented pIC50 across a set of compounds
value-kind: pIC50

1) NCCCC(=O)Nc1ccc(Nc2nc(-c3cccc4c3oc3ccccc34)cc3ccnn23)cc1 ... ≥ 5.76
2) NCCC(C(=O)Nc1ccc(Nc2nc(-c3cccc4c3oc3ccccc34)cc3ccnn23)cc1)c1ccc(Cl)c(Cl)c1 (racemic) ... ≥ 5.76
3) CC(=O)Nc1cccc(-c2ccc(-c3cc4ccnn4c(Nc4ccc(NC(=O)c5ccc(CCN)cc5)cc4)n3)cc2)c1 ... ≥ 5.76
